- Tested on: LXRb:RXRa (NR concentration 270 nM, RXRa partner concentration 90 nM)
- Assay text: PBM binding z-score (relative to random genomic background probes); higher = stronger binding; sequences stand for … in GC…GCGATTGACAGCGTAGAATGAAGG
Each entry gets no (0) if its PBM binding z-score stays under 2, and yes (1) if its PBM binding z-score is 2 or above.

Ask: Does TGAATGAGGTTAAAGATCAGGAAACGTGGCGTCG have a reported PBM binding z-score of at least 2?
Reply: no (0)

Ask: Does CCAGACAGGTGAGGAGGTAACTCAGCCTCGATTA have a reported PBM binding z-score of at least 2?
Reply: no (0)

Ask: Does CGAGCTAGGTCAGAACAGGACAGTGAAGGATGAT have a reported PBM binding z-score of at least 2?
Reply: no (0)

Ask: Does TCAGACAGGTGAAGGGAACTCAGGTACGCAGTCG have a reported PBM binding z-score of at least 2?
Reply: no (0)

Ask: Does TCTATTAGTTGCTTAGGGCAACCGAAACAGCGGA have a reported PBM binding z-score of at least 2?
Reply: no (0)

Ask: Does CCTAGTTGGTCAGGAGGTCACACACCGGATATGA have a reported PBM binding z-score of at least 2?
Reply: yes (1)

* * *

- Tested on: LXRb homodimer (NR concentration 270 nM)
- Assay text: PBM binding z-score (relative to random genomic background probes); higher = stronger binding; sequences stand for … in GC…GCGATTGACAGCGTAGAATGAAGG
Below, each of the sequences is paired with its reported PBM binding z-score value.
Simply state the number, no unit and no words.

As a guide, the following entries are already answered.
TCGAGTAGGTTACCAATGGGGCTTTCAGCTTTCT    -0.632
CAAACTAGGTCAAGGTCCAAGTCGGTTTGTGCCA    -0.00943
TCGAGTACGTTACCAATGGGGCATTCAGCTTTCT    -0.0116
AGTCAAAGTTCAGGACGAGGTAACGCAAAGCACG    0.0872
CCGACTGGGGCAGAAAGGTTACCAAACCATCCGG    -0.812

Ask: Bench note: what PBM binding z-score did TCTTGTAGATCAATACAGGTTAAGAAAGTGCGCT show?
Reply: 0.0132

* * *

- Tested on: VDR homodimer (NR concentration 270 nM)
- Assay text: PBM binding z-score (relative to random genomic background probes); higher = stronger binding; sequences stand for … in GC…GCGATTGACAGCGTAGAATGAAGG
Each entry gets Not met if its PBM binding z-score stays under 0.7, and Met if its PBM binding z-score is 0.7 or above.

Ask: Does TACCCTAGGTCAGATCGGGCCAGTATACGCTATA have a reported PBM binding z-score of at least 0.7?
Reply: Not met

Ask: Does CGTCCAAGGTCAAGGTCTGTGAAAGAGACTCGAA have a reported PBM binding z-score of at least 0.7?
Reply: Met

Ask: Does GGAGCGAGGGCAAAGTTGATAGCATCTGTCGACG have a reported PBM binding z-score of at least 0.7?
Reply: Met

* * *

Below, each of the sequences is paired with its reported PBM binding z-score value.
- Test system: RARb homodimer (NR concentration 270 nM)
- Assay text: PBM binding z-score (relative to random genomic background probes); higher = stronger binding; sequences stand for … in GC…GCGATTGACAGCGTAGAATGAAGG
Simply state the number, no unit and no words.

As a guide, the following entries are already answered.
ATATGTAGGTTAAATCCGGGTCATTCAGGCTATG    3.23
CCTACAGGGCCAAAAAGGTCATTGATGCCGATAA    4.52
CCTACTGGGCCAAAAAGGTCATTCATGCCGATAA    4.58
GCTATTATTTGAAAGGGCAACCGAATGATTCTCG    2.11
ACAGACAGGTGATGAAGGTAAATCAGGCTATCAT    0.0548

Next, consider the following sequence.
Ask: Bench note: what PBM binding z-score did CCTCGGAAGACAGAAGGTCAGAGCTGTCCGCTTT show?
Reply: 3.01

* * *

- Tested on: PPARg:RXRa 90nM:30nM, anti-RXR (NR concentration 90 nM, RXRa partner concentration 30 nM)
- Assay text: PBM binding z-score (relative to random genomic background probes); higher = stronger binding; sequences stand for … in GC…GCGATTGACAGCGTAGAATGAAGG
Below, each of the sequences is paired with its reported PBM binding z-score value.

As a guide, the following entries are already answered.
AGAACGAGGTTATTAAGATCAGGGAATTGCGGTC    0.958
TCTCGGAGGACTCGAAAGGTCAGAGCTCGACATC    1.88
GCTGCTAGGTCAGGTTGGCCAGCTAACGGGTACG    0.219
TCATATAGGCAATACAGGTGAAAGTCGGCATCTA    2.85
GCGACTGGGGCAAAGAAGGTTACCATAAGGTTGG    1.66
CGAACTAGGTCACAGAGGTCAAAGTCCGTGCGTA    8.62
ATATTTAGGTTATCGGGTCATTCAGTTTGCGCAT    4.66
CCTAGCAGGCCAATCTGGGTAACTCAAGGCTTGA    -0.958
ATCGAAAGGTCGCCGAGGTGAGTATACACCGTTT    2.85
AGTCAAAATTCAGGACGAGGTAACGTAAAGCACG    0.217

Ask: Bench note: what PBM binding z-score did AGAACTAGGGCACGCTGAGTTGATAGCAGAGTAG show?
Reply: 3.37

Ask: Bench note: what PBM binding z-score did CTCGAAAGGTCGGTTGAGGCGAGTATACGGATAA show?
Reply: 0.269

* * *

- Test system: RARb homodimer (NR concentration 270 nM)
- Assay text: PBM binding z-score (relative to random genomic background probes); higher = stronger binding; sequences stand for … in GC…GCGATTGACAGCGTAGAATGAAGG
Value type: PBM binding z-score
Simply state the number, no unit and no words.

ATCTCTAGTTAAGACTCAGTTCAGTGAAGAACGC    0.624

Ask: Bench note: what PBM binding z-score did ACTATTAGTTGCCTTAGGGCAACCGATACGACGC show?
Reply: 0.893

Ask: Bench note: what PBM binding z-score did CCTTACGGGTTAAGGTTATAGCACGGGTGGTACG show?
Reply: 1.42

Ask: Bench note: what PBM binding z-score did TAGCCTGGGTCAGATCGGGCCAGTATACGCTATA show?
Reply: 1.61

Ask: Bench note: what PBM binding z-score did TCGAGTAGGTTAGTCGGGGCATTCTGCCAACATA show?
Reply: 0.157

Ask: Bench note: what PBM binding z-score did CCTCGGAGGACAACTGGAGGTCAGAGCTGCCAGA show?
Reply: 3.7

Ask: Bench note: what PBM binding z-score did TAAATGAGGTTAAAGATCAGGGAACGTGGCGTCG show?
Reply: 1.22

Ask: Bench note: what PBM binding z-score did GTACCAAGGTAAATAGGTCGTTGATGAGTAGGCG show?
Reply: 0.723

Ask: Bench note: what PBM binding z-score did TCTTGTAGATCATAGGTTAAGAAAGCCGAAGCCT show?
Reply: 0.203

* * *

- Tested on: LXRa:RXRa (NR concentration 270 nM, RXRa partner concentration 90 nM)
- Assay text: PBM binding z-score (relative to random genomic background probes); higher = stronger binding; sequences stand for … in GC…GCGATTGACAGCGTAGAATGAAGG
Below, each of the sequences is paired with its reported PBM binding z-score value.
Simply state the number, no unit and no words.

Ask: Bench note: what PBM binding z-score did CCTACTGGGGCAGAAAGGTTACCATACCATCCGG show?
Reply: 0.567

Ask: Bench note: what PBM binding z-score did GCGACTGGGGCAAAGCAGGGTACCATAAGGTTGG show?
Reply: -0.295

Ask: Bench note: what PBM binding z-score did GTATATAGGTAATACAAGGTGAAAGTCCGATTGT show?
Reply: 2.78

Ask: Bench note: what PBM binding z-score did GGAACGAGGGCATTCGAGTTGATAGTATGGCGAT show?
Reply: 1.71

Ask: Bench note: what PBM binding z-score did ACTAGCAGGCCAACGGTCACTCAAGATTAGTCCG show?
Reply: -0.0207

Ask: Bench note: what PBM binding z-score did ATCGTAAGGTCGAAGGTGAGTATACCCACCCGAA show?
Reply: 1.9

Ask: Bench note: what PBM binding z-score did TCTTGCAGATCAATAGAGGTTAAGAAAGTGCGCT show?
Reply: 3.34

Ask: Bench note: what PBM binding z-score did CGTCCAAGGTCAGCAGGTCAGTGATAGCGACGTG show?
Reply: 3.86

Ask: Bench note: what PBM binding z-score did ACAGACAGGTGGGTGAAGGTAACTCAGCTGGACG show?
Reply: -0.222

Ask: Bench note: what PBM binding z-score did TCTTGTAGATCACCAGGTTAAGAAAGCTGGCCAA show?
Reply: 0.602

Ask: Bench note: what PBM binding z-score did GGAACGAGGCCAAGTTGATAGCAGAGTTTGATGG show?
Reply: -0.562

Ask: Bench note: what PBM binding z-score did ATCTCTAGGTAAAGATATTTCAGTGAATGCAAAT show?
Reply: 0.268

Ask: Bench note: what PBM binding z-score did CAGCCTAGGTCAGGGCCAGTATAGGAGGAACGTT show?
Reply: 0.984

Ask: Bench note: what PBM binding z-score did GCAGACAGGTGATACGCAGGTAACTCAGGGTGGC show?
Reply: -0.342

Ask: Bench note: what PBM binding z-score did CGTCCAAGATCAAGGTCAGTGAAAGAGACTCGAA show?
Reply: 1.53

Ask: Bench note: what PBM binding z-score did GGAACGAGGGCAAAGTTAATAGCATCTGTCGACG show?
Reply: 0.812

Ask: Bench note: what PBM binding z-score did ATCTCTAGGTATAGTTCAGTGAAAGATCGATAGA show?
Reply: 1.11
